Ref: ChEMBL document CHEMBL1201862

- Test system: HEK293;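 further: HEK-293-T cells carrying an NF-kB luciferase reporter; cells exposed to compound overnight before the viability read; potency for loss of cell viability meaning cytotoxicity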
- Test: cells
- Assay type: functional, cell-based
- Condition Summary: Homo sapiens
Calls of active or inactive are those of the source.
Hi! Could you answer with just one of these? Y = active, N = inactive

Take a look at these entries with their results.
Cc1ccc(S(=O)(=O)Nc2ccccc2-c2ccccc2NS(=O)(=O)c2ccc(C)cc2)cc1; N
Cc1nc2ccc(NC(=O)c3cc(S(=O)(=O)N(C)c4ccccc4)ccc3Cl)cc2s1; N
COc1cc(OC)c(OC)cc1/C=C1\CC(C)C/C(=C\c2cc(OC)c(OC)cc2OC)C1=O (centres undefined); Y

Could you please tell me the result logged for C=CCn1c(C)cc(C(=O)COc2ccc(C)nc2[N+](=O)[O-])c1C in this assay?
N

---

- Tgt: ATP-dependent molecular chaperone HSP82 (Candida albicans (strain WO-1) (Yeast))
- Sequence (C4YTQ8 whole entry): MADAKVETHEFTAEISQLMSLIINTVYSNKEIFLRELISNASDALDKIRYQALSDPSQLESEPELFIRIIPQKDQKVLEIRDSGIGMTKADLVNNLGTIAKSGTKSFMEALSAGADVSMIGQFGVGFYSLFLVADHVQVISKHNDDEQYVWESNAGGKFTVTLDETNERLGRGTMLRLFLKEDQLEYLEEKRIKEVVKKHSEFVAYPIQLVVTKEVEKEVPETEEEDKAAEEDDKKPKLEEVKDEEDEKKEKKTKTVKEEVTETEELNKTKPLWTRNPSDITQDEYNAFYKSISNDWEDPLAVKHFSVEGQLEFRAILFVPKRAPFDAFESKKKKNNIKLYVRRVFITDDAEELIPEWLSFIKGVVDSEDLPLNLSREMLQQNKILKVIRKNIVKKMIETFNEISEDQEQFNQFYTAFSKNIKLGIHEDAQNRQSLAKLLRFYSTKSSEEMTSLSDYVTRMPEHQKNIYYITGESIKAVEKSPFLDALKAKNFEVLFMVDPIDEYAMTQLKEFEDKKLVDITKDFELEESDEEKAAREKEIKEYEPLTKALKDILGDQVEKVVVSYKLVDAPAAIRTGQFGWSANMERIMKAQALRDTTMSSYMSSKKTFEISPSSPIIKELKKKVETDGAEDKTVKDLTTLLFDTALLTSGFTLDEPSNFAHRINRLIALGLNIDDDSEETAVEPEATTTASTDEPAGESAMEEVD
- Test: loss of DOC-induced GRE-beta-galactosidase reporter signal, dose response, Hsp90 inhibitor project, S. cerevisiae, luminescence (AID 2400);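 further: beta-galactosidase luminescence from glucocorticoid response element reporter as proxy for Hsp90 function; inhibitor potency where signal loss means Hsp90 inhibition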
- Type: functional, cell-based
Activity calls are given as the source filed them.
Hi! Could you answer with just one of these? 1 (yes) (active), 0 (no) (inactive)

Take a look at these entries with their results.
Cn1c(N2CCOCC2)c(/C=N/OC(=O)c2ccc(F)cc2)c2ccccc21; 0 (no)
Sc1nnc(C2CCCCC2)n1/N=C/c1ccc(Br)s1; 1 (yes)

Could you please tell me the result logged for O=C(NNC(=S)Nc1ccc(Cl)c(Cl)c1)c1ccccn1 in this assay?
0 (no)

Could you please tell me the result logged for COC(=O)Cn1nc(-c2ccccc2)c2ccccc21 in this assay?
1 (yes)

Could you please tell me the result logged for O=C(c1ccc(Cn2c(=S)[nH]c3ccccc3c2=O)cc1)N1CCN(c2ccccn2)CC1 in this assay?
0 (no)

Could you please tell me the result logged for O=C(c1ccc(Cn2c(=O)[nH]c3ccccc3c2=O)cc1)N1CCN(c2ccc(F)cc2)CC1 in this assay?
0 (no)

Could you please tell me the result logged for CCC(=O)NC(c1ccco1)c1cc(Cl)c2cccnc2c1O (stereo unspecified) in this assay?
0 (no)

---

# EC50 listing for each entry below
- Test: inhibitors of intracellular T. cruzi replication, confirmation, NIH3T3 host cells, beta-gal luminescence (AID 2044);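 further: intracellular parasites grown in NIH/3T3 mouse fibroblasts as host cells; luminescent beta-galactosidase reporter signal from transgenic T. cruzi replicating inside host cells; inhibitors lower the luminescence signal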
- Format: functional, cell-based
Active and inactive are the calls of the source.

// known answers, use as guide
Cc1nn(CC(N)=O)c(=O)c2ccccc12; 903 nM (active)
Fc1ccccc1Cc1noc(CN2CCN(C/C=C/c3ccccc3)CC2)n1; 443 nM (active)

Which EC50 is listed for CCN(CC)CCN(C(=O)c1ccc2c(c1)CCCC2)c1nc2ccc(F)cc2s1 ?
818 nM (active)

Which EC50 is listed for CCO/C(O)=C/C1=NC2(CCCCC2)Cc2cc(OC)c(OC)cc21 ?
2200 nM (active)

Which EC50 is listed for O=C1C2C(c3ccccc3)CC=CC2[C@H](c2cccc([N+](=O)[O-])c2)N1Cc1ccccc1 (stereo not given in full) ?
2170 nM (active)

---

# AC50 listing for each entry below
- Tgt: Paired box protein Pax-8 (Homo sapiens, UniProt Q06710)
- Sequence (Q06710 whole entry): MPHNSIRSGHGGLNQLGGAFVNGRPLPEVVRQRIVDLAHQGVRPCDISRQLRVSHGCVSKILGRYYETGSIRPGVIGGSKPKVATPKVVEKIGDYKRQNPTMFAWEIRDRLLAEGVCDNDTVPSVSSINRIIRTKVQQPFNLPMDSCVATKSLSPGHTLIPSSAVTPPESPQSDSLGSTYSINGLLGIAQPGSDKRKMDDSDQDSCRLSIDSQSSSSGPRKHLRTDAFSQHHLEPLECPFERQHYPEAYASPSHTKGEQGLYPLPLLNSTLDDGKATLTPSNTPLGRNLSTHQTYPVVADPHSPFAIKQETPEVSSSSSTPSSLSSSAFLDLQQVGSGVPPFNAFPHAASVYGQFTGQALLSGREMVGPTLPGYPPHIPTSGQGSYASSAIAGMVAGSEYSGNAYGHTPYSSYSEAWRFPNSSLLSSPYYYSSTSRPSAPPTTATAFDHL
- Test: inhibitors of PAX8-driven TPO luciferase reporter, dose response, RMG-I cells, cherry-pick (AID 687027);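 further: luciferase reporter driven by Pax8 target thyroperoxidase promoter measured by SteadyGlo luminescence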
- Assay type: functional, cell-based
The source made the active and inactive calls.

COc1ccc(NC(=O)N(C)C[C@H]2OCCCC[C@@H](C)Oc3ccc(NC(=O)Nc4ccc(C(F)(F)F)cc4)cc3C(=O)N([C@@H](C)CO)C[C@@H]2C)cc1; 3.41 µM (active)

Which AC50 is listed for Cc1noc(C)c1S(=O)(=O)Nc1ccc2c(c1)CC(=O)N([C@@H](C)CO)C[C@@H](C)[C@H](CN(C)Cc1ccc(Cl)c(Cl)c1)O2 ?
1.19 µM (active)

Which AC50 is listed for O=C(C[C@@H]1C[C@@H]2c3cc(NC(=O)Cc4ccncc4)ccc3O[C@@H]2[C@H](CO)O1)NCc1ccc(-c2ccccc2)cc1 ?
13.3 µM (active)
